The values you see were collected from a collection of fitness landscapes (doi:10.1016/j.celrep.2020.107928).

B1: Caulobacter ParB omega fusion; a variant is named by its letters at X, in order, B8GW30 (parent)
chain: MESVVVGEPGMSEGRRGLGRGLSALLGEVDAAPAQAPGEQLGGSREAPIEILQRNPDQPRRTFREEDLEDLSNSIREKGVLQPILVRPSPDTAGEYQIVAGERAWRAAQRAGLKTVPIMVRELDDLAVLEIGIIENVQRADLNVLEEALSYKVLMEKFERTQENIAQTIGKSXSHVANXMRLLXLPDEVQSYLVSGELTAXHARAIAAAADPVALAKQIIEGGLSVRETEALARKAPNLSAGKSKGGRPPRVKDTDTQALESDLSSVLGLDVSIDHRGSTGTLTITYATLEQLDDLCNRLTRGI

- Variants of: B1
- protocol_description: one-hybrid fitness for binding NBS DNA (the Noc-binding site; scaled: cognate 1, non-cognate 0); higher = stronger binding
- run_conditions: with NBS DNA site
Over roughly 81,000 sequences, “one-hybrid fitness for binding NBS DNA” has its median near -0.1; the highest 2% begin near 0.36. The list comes from a sample in which the highest values are over-represented; it also holds close analogues and randomly drawn sequences.
endpoint_name: one-hybrid fitness for binding NBS DNA

QSRV
0.396
RRKL
0.259
QSSV
≤ 0.2
QTAK
≤ 0.2
DLGR
≤ 0.2
QHHN
≤ 0.2
QFVT
≤ 0.2
RMHR
0.503
QADV
≤ 0.2
QSLY
≤ 0.2

Here are 6 variants. What values of one-hybrid fitness for binding NBS DNA were reported for them?
1. QHHR
2. QFYT
3. GCSF
4. LIRD
5. RIKS
6. HDRG

1. 0.571
2. ≤ 0.2
3. ≤ 0.2
4. ≤ 0.2
5. 0.499
6. ≤ 0.2

Here are 6 variants. What values of one-hybrid fitness for binding NBS DNA were reported for them?
1. QMDV
2. QSKM
3. QSVT
4. RSKD
5. QPKM
6. GSLP

1: ≤ 0.2; 2: 0.362; 3: 0.328; 4: ≤ 0.2; 5: ≤ 0.2; 6: ≤ 0.2

Here are 8 variants. What values of one-hybrid fitness for binding NBS DNA were reported for them?
1. RMHF
2. QHGR
3. QHGN
4. WVEG
5. QRVM
6. QQKS
7. PPFG
8. QQFM

1: ≤ 0.2; 2: 0.546; 3: ≤ 0.2; 4: ≤ 0.2; 5: 0.265; 6: 0.714; 7: ≤ 0.2; 8: ≤ 0.2
